ASSAY_TARGET: extracellular domain of the FGFR2b protein (NP_075259.4) (UniProt P21802)
Sequence (P21802 other isoform, or with tags, fused parts or gaps): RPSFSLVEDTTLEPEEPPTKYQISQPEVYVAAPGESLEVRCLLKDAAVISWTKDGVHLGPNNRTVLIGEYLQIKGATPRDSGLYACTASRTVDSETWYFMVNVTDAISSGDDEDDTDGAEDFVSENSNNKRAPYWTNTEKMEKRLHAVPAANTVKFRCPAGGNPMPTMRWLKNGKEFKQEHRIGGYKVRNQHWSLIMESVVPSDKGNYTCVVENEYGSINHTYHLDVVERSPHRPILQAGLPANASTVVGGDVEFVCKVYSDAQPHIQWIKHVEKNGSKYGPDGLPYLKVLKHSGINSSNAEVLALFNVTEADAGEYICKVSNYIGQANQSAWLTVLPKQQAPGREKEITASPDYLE
ASSAY_NOTES: phage ELISA
ENDPOINT: OD (450 nm) value

>  <BINDER>
1C10 scFv displayed on phage (scFv) scFv: QVQLQQSGAELVKPGASVKMSCKASGYTFRYYNMHWVKRTPGQGLEWIGLIYPDNGDTSYNQKFKGKATLTADTSSSTAYMQLSSLTSEDSAVYYCARGGLDYWGQGTSLTVSSGGGGSGGGGSGGGGSDIVMTQSPASLSASVGETVTITCRASGNIHNYLAWYQQKQGKSPQLLVYNAKTLADGVPSRFSGSGSGTQYSLKINSLQPEDFGSYYCQHFWSTPYTFGGGTKLEMK

>  <RECORDED_NUMBER>
2.55

$$$$
>  <BINDER>
3B7 scFv displayed on phage (scFv) scFv: EVQLQQSGAELVKPGASVKMSCKASGYTFRYYNMHWVKRTPGQGLEWIGLIYPDNGDTSYNQKFKGKATLTADTSSSTAYMQLSSLTSEDSAVYYCARGGFDYWGQGTTLTVSSGGGGSGGGGSGGGGSDIQMTQSPASLSASVGETVTITCGASENIYGALNWYQRKQGKSPQLLIYGATNLADGMSSRFSGSGSGRQYSLKISSLHPDDVATYYCQNVLSTPYTFGGGTKLELK

>  <RECORDED_NUMBER>
2.03

$$$$
>  <BINDER>
3F11 scFv displayed on phage (scFv) scFv: QVQLQQSGAELVKPGASVKMSCKASGYTFAPYNIHWVRQTPGQGLEWIGLIYPDNGDTSYNQKFKAKATLTADKSSSTAYMQLSSLTSEDSAVYYCARGGFDYWGQGTSLTVSSGGGGSGGGGSGGGGSDIVMTQSQKFMSTSVGDRVSVTCKASQNVGTNVAWYQQKPGQSPKALIYSASYRYSGVPDRFTGSGSGTDFTLTISNVQSEDLAEYFCQQHYSTPFTFGSGTKLEIK

>  <RECORDED_NUMBER>
2

$$$$

Sourced from patent EP4714976A1
